z-score: recorded values
test: basal 3T3-L1 adipocyte mitochondrial potential changes, profiling panel, cell-based, JC-1 fluorescence, 3T3-L1 adipocytes, 24 h, 100 nL compound (AID 1168); conditions: JC-1 mitochondrial fluorescence, higher = more signal, called active from +8 up or from −8 down; also: test concentration not given here

compound	z-score
[N-]=[N+]=Nc1ccccc1C[C@]1(C(N)=O)COC(c2ccc(OCCCO)cc2)=N1	-0.298
C=C(COC)/C(=C/C[C@@H](OC(C)=O)c1cccc(OCCO)c1)c1cnc2ccccc2c1	-0.0217
COC(=O)[C@@]1(Cc2ccc(F)cc2)[C@H]2c3cc(C(=O)N4CCCC4)n(C[C@H](O)CO)c3C[C@H]2CN1C(=O)c1ccccc1	-1.11
COC(=O)[C@@]1(Cc2ccccc2)[C@H]2c3cc(C(=O)N(C)C)n(Cc4ccc(Cl)c(C(F)(F)F)c4)c3C[C@H]2CN1C(=O)c1ccccc1	-1.28
COCCOC(=O)N1C(=O)[C@@]2(c3cc(C#CCNC(N)=O)ccc31)[C@H](c1ccccc1OCCO)N1[C@H](c3ccccc3)[C@H](c3ccccc3)OC(=O)[C@H]1[C@@H]2C(=O)N1CCCCCCC1	-1.3
CN1C(=O)C2C=CC(C(O)c3ccc(I)cc3)N(N(c3ccccc3)c3ccccc3)C2C1=O (configuration not stated)	-1.67
O=C1NC(=O)C2C1C=CC(C(O)C(c1ccccc1)c1ccccc1)N2Nc1ccccn1 (configuration not stated)	-0.219

Recorded values, source PubChem BioAssay.
